Hello, the source for this data is patent US20190388471A1, in case you need it.

- TARGET DESC: T1, human CD19 (full length, expressed on cells) (human, UniProt P15391 20-556)
- T1 construct: whole, on cells; The functional assays used K562 cells transduced to express CD19; also called hsCD19; hCD19
- T1 sequence (looked up): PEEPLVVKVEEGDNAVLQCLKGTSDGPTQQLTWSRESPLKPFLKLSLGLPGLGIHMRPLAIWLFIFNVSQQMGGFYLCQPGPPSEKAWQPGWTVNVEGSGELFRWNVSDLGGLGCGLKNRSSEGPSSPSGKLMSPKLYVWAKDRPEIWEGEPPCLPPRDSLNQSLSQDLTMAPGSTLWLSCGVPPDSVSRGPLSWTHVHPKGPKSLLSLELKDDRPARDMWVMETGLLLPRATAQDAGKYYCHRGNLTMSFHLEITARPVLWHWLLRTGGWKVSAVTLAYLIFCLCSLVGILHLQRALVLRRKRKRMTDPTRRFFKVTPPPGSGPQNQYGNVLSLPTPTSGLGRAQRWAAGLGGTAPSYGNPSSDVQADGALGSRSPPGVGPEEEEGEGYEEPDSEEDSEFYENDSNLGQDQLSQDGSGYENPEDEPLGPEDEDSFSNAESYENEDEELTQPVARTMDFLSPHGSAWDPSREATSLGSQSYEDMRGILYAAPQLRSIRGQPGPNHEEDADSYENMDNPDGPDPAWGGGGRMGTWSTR
- EXPERIMENTAL DETAILS: flow cytometry; His-tagged soluble scFv on mouse cell line 300 expressing hCD19

BINDER: 103106 CAR4 Soluble scFv (scFv, also called CAR4 scFv; humanized scFv) scFv: QVQLQESGPGLVKPSETLSLTCTVSGVSLPDYGVSWIRQPPGKGLEWIGVIWGSETTYYQSSLKSRVTISKDNSKNQVSLKLSSVTAADTAVYYCAKHYYYGGSYAMDYWGQGTLVTVSSGGGGSGGGGSGGGGSEIVMTQSPATLSLSPGERATLSCRASQDISKYLNWYQQKPGQAPRLLIYHTSRLHSGIPARFSGSGSGTDYTLTISSLQPEDFAVYFCQQGNTLPYTFGQGTKLEIKHHHHHHHH
binding result: binds

BINDER: 103104 CAR 3 Soluble scFv (scFv, also called CAR3 scFv; humanized scFv) scFv: QVQLQESGPGLVKPSETLSLTCTVSGVSLPDYGVSWIRQPPGKGLEWIGVIWGSETTYYSSSLKSRVTISKDNSKNQVSLKLSSVTAADTAVYYCAKHYYYGGSYAMDYWGQGTLVTVSSGGGGSGGGGSGGGGSEIVMTQSPATLSLSPGERATLSCRASQDISKYLNWYQQKPGQAPRLLIYHTSRLHSGIPARFSGSGSGTDYTLTISSLQPEDFAVYFCQQGNTLPYTFGQGTKLEIKHHHHHHHH
binding result: binds
